# Test system: Lolium perenne (LOLPE)
# TEST DETAILS: B1 pre-emergence herbicidal activity
# Assay type: in vivo
# TEST PARAMETERS: Test 1b, rate 1000 g/ha, evaluated after 13 days, score 0-5 (5=total damage, 0=no damage)
Pre-emergence herbicidal activity, LOLPE: recorded values

Recorded results for 5 compounds are shown here.
CCOC(=O)Nc1cnc(-c2cncc(F)c2)nc1C(F)(F)F :: 1
CC(C)(C)OC(=O)Nc1cnc(-c2cncc(F)c2)nc1OCc1ccccc1 :: 0
CC(C)(C)OC(=O)Nc1cnc(-c2cncc(C#N)c2)nc1C(F)(F)F :: 0
CN(C(=O)OC(C)(C)C)c1cnc(-c2cncc(F)c2)nc1C(F)(F)F :: 1
CC(C)(C)OC(=O)Nc1cnc(-c2cncnc2)nc1C(F)(F)F :: 1

-- ask Quote Pre-emergence herbicidal activity, LOLPE reported for "O=C1OCCN1c1cnc(-c2cncc(F)c2)nc1C(F)(F)F" please.
-- reply 0

-- ask Quote Pre-emergence herbicidal activity, LOLPE reported for "Cc1nc(-c2cncnc2)ncc1N(C)C(=O)OC(C)(C)C" please.
-- reply 1

---

# System: Alopecurus myosuroides (ALOMY)
# TEST DETAILS: B1 pre-emergence herbicidal activity
# Assay type: in vivo
# Set-up: key: 5=total damage to plant; 0=no damage to plant
# TEST PARAMETERS: Test 1b, rate 1000 g/ha, evaluated after 13 days, score 0-5 (5=total damage, 0=no damage)
Pre-emergence herbicidal activity, ALOMY: recorded values
Hey, just send me the number, nothing else.

Recorded results for 4 compounds are shown here.
C=CCN(C(=O)OC(C)(C)C)c1cnc(-c2cncnc2)nc1C :: 0
CC(C)OC(=O)N(C(=O)OC(C)C)c1cnc(-c2cncc(F)c2)nc1C(F)(F)F :: 0
CC(C)(C)OC(=O)Nc1cnc(-c2cncc(F)c2)nc1OCc1ccccc1 :: 0
COC(=O)Nc1cnc(-c2cncc(F)c2)nc1C(F)(F)F :: 1

-- ask Quote Pre-emergence herbicidal activity, ALOMY reported for "Cc1nc(-c2cncnc2)ncc1N(C)C(=O)OC(C)(C)C" please.
-- reply 1

-- ask Quote Pre-emergence herbicidal activity, ALOMY reported for "Cc1nc(-c2cncnc2)ncc1NC(=O)OC(C)(C)C" please.
-- reply 0

-- ask Quote Pre-emergence herbicidal activity, ALOMY reported for "O=C(Nc1cnc(-c2cncc(F)c2)nc1C(F)(F)F)N1CCOCC1" please.
-- reply 0

-- ask Quote Pre-emergence herbicidal activity, ALOMY reported for "CC(C)COC(=O)Nc1cnc(-c2cncc(F)c2)nc1C(F)(F)F" please.
-- reply 0

-- ask Quote Pre-emergence herbicidal activity, ALOMY reported for "CC(C)(C)OC(=O)Nc1cnc(-c2cncc(C#N)c2)nc1C(F)(F)F" please.
-- reply 0

---

# System: Setaria faberi (SETFA)
# TEST DETAILS: B2 post-emergence herbicidal activity
# Assay type: in vivo
# Design: key: 5=total damage to plant; 0=no damage to plant
# TEST PARAMETERS: Test 2b, rate 1000 g/ha, evaluated after 13 days, score 0-5 (5=total damage, 0=no damage)
ASSAY ENDPOINT: Control of weed species after post-emergence application, SETFA
Hey, just send me the number, nothing else.

Recorded results for 3 compounds are shown here.
CC(C)COC(=O)Nc1cnc(-c2cncc(F)c2)nc1C(F)(F)F :: 5
CC(C)(C)OC(=O)Nc1cnc(-c2cncc(C#N)c2)nc1C(F)(F)F :: 5
CN(C(=O)OC(C)(C)C)c1cnc(-c2cncc(F)c2)nc1C(F)(F)F :: 5

-- ask Quote Control of weed species after post-emergence application, SETFA reported for "CCCOC(=O)Nc1cnc(-c2cncc(F)c2)nc1C(F)(F)F" please.
-- reply 5

-- ask Quote Control of weed species after post-emergence application, SETFA reported for "O=C1OCCN1c1cnc(-c2cncc(F)c2)nc1C(F)(F)F" please.
-- reply 4

-- ask Quote Control of weed species after post-emergence application, SETFA reported for "CN1CCN(c2cnc(-c3cncc(F)c3)nc2C(F)(F)F)C1=O" please.
-- reply 3

-- ask Quote Control of weed species after post-emergence application, SETFA reported for "CN(C)C(=O)Nc1cnc(-c2cncc(F)c2)nc1C(F)(F)F" please.
-- reply 5

-- ask Quote Control of weed species after post-emergence application, SETFA reported for "CC(C)(C)OC(=O)Nc1cnc(-c2cncc(F)c2)nc1OCc1ccccc1" please.
-- reply 1

-- ask Quote Control of weed species after post-emergence application, SETFA reported for "Cc1nc(-c2cncnc2)ncc1N(C)C(=O)OC(C)(C)C" please.
-- reply 5
